Hey, just so you know, these numbers are from paper PMC4336329.

TESTED TARGET: human ether-à-go-go-related gene (hERG) potassium channel (human, UniProt Q12809)
Sequence (Q12809 whole entry, looked up): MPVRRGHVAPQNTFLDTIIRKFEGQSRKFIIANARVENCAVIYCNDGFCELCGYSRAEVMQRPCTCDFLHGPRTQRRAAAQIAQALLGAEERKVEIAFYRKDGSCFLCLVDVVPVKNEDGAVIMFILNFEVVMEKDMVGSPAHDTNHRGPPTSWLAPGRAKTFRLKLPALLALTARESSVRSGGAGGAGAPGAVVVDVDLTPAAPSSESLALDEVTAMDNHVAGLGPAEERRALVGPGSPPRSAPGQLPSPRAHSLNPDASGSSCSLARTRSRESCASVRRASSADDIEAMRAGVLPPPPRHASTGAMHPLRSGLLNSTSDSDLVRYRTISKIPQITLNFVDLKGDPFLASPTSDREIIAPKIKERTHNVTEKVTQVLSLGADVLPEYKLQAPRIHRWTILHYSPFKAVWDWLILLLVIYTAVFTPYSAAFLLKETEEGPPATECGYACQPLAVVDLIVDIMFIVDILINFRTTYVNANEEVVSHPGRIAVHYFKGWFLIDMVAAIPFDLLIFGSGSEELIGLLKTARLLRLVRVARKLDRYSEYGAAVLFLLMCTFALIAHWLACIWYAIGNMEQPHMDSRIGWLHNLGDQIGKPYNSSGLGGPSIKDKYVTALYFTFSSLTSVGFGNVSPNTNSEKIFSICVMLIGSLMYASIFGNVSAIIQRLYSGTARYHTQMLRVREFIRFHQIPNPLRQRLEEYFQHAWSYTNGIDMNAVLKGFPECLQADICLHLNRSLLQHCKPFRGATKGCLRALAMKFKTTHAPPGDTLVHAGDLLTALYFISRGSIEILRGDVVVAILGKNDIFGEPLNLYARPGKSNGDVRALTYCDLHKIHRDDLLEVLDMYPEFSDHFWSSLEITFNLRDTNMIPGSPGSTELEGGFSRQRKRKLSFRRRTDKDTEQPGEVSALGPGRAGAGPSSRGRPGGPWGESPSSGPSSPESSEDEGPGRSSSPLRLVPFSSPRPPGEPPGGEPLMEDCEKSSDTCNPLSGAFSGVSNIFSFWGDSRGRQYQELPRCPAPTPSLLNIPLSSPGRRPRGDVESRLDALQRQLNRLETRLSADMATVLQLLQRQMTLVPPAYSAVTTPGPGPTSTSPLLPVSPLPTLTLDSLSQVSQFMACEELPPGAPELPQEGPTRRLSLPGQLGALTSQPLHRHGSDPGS
MEASUREMENT NOTES: primary screen, population patch clamp on CHO cells stably expressing hERG; higher = less effect of the substance
About 14,000 (4.5%) of roughly 310,000 compounds showed an effect of 50% or more. The effect is printed as a negative number. This is one part of a sample in which strong results are shown more often than they occur.
MEASURED QUANTITY: hERG current change (%, negative = inhibition) at 10uM (%)

INSERT INTO assay_data (compound, unit_info, measured_number) VALUES
  ('CC(=O)c1ccc(NC(=O)Cn2cnc(S(=O)(=O)N3CCC(C)CC3)c2)cc1', '%', 21.4),
  ('CCn1c(CS(=O)Cc2ccc(Cl)cc2Cl)nnc1SCc1c(Cl)cccc1Cl (stereo not drawn)', '%', -6.78),
  ('Cn1c(CS(=O)Cc2c(Cl)cccc2Cl)nnc1SCc1ccc(Cl)cc1 (stereo not drawn)', '%', -56.2),
  ('O=C(c1ccccc1Oc1ccccc1)N1CCN(c2ccc(F)cc2)CC1', '%', -33.9),
  ('CCN(CC)CC(=O)Nc1cc(N(C)C)nc2ccccc12.O=C(O)C(=O)O', '%', -35.3),
  ('O=C(COC(=O)c1ccccc1C(=O)N1CCN(c2ccc(F)cc2)CC1)NCc1ccccc1', '%', -73.6),
  ('O=C(CN1CCCC1)Nc1c2c(nc3ccccc13)N(Cc1ccccc1)CC2.O=C(O)C(=O)O', '%', 6.05),
  ('Cc1cc(/C=C(/C#N)C(=O)Nc2ccccc2)c(C)n1-c1cccnc1', '%', -28.5),
  ('COc1cccc(NC(=O)COC(=O)c2ccccc2C(=O)N2CCN(c3ccccc3)CC2)c1', '%', -11.8),
  ('CC(C)N(C(=O)COC(=O)c1ccccc1C(=O)N1CCN(c2ccc(F)cc2)CC1)C(C)C', '%', -55.9),
  ('CCCCCC(=O)Nc1cccc2ccccc12', '%', -2.38),
  ('O=C(COC(=O)c1ccccc1C(=O)N1CCN(c2ccccc2)CC1)NCc1ccccc1', '%', -58);

----------
TESTED TARGET: human ether-à-go-go-related gene (hERG) potassium channel (human);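 note: peak tail current of the secondary pulse compared with the same well before compound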
MEASUREMENT NOTES: primary screen, population patch clamp on CHO cells stably expressing hERG; higher = less effect of the substance
The whole screen tested about 310,000 compounds, of which about 14,000 (4.5%) showed an effect of 50% or more. Effects have a minus sign here. The sample holds strong results, similar compounds and a random draw of the others, so the mix is not that of the screen.
MEASURED QUANTITY: hERG current change (%, negative = inhibition) at 10uM

INSERT INTO assay_data (molecule, result) VALUES
  ('Cc1cc(Nc2ccccc2O)c2ccccc2n1.Cl', '-18.6%'),
  ('CC1CN(Cc2ccc(C#N)cc2Cl)CC(C)O1.Cl (stereo not shown)', '0.479%'),
  ('Cc1ccc(C(=O)NC(C)(COc2nonc2C)COc2nonc2C)cc1', '-40%'),
  ('CCC(C(=O)Nc1ccccc1OC)n1c(C(=O)OC)cc2ccsc21 (stereo not shown)', '-11.3%');

----------
TESTED TARGET: human ether-à-go-go-related gene (hERG) potassium channel (human, UniProt Q12809);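 note: peak tail current of the secondary pulse compared with the same well before compound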
MEASUREMENT NOTES: primary screen, population patch clamp on CHO cells stably expressing hERG; higher = less effect of the substance
Out of some 310,000 compounds screened, about 14,000 (4.5%) showed an effect of 50% or more. Effects have a minus sign here. This is one part of a sample in which strong results are shown more often than they occur.
Recorded hERG current change (%, negative = inhibition) at 10uM values for a group of compounds are listed next.
MEASURED QUANTITY: hERG current change (%, negative = inhibition) at 10uM (%)

INSERT INTO measurements (compound, measured_number) VALUES
  ('O=C(CN1CCN(S(=O)(=O)c2ccc(F)cc2)CC1)NCC1(N2CCOCC2)CCCCC1', -18.6),
  ('CCc1cc(Cn2nc(-c3ccccc3)cc2C(=O)O)on1', -1.7),
  ('O=C(CN1CCN(CC(=O)Nc2cccc(F)c2)CC1)NCC1(N2CCOCC2)CCCCC1', -27),
  ('CC(NCC1(N2CCOCC2)CCCCC1)C(=O)N1CCc2ccccc21.O=C(O)C(=O)O (stereo not drawn)', -5.73),
  ('O=C(CNCC1(N2CCOCC2)CCCCC1)Nc1ccc(Cl)cc1', -78.8),
  ('O=C(Nc1ccccc1)C1(c2ccccc2)CC1(Cl)Cl (stereo not drawn)', -18.1),
  ('N#CCC(=O)Nc1ccc(C(=O)NCC2(N3CCOCC3)CCCCC2)cc1', 7.48),
  ('O=C1c2ccccc2NC(c2ccc(O)cc2)N1Cc1ccco1 (stereo not drawn)', -24.3),
  ('COc1ccc(S(=O)(=O)N2CCCCCC2)cc1C(=O)N1CCN(c2ccccc2C)CC1', -48),
  ('CCOc1ccc(N/C(SCc2cccc([N+](=O)[O-])c2)=C(/C#N)C(N)=O)cc1', -59.1),
  ('CCOC(=O)c1ccc2ncc(C(=O)OCC)c(NCCN3CCOCC3)c2c1', -48.5),
  ('CCOC(=O)c1ccc2ncc(C(=O)OCC)c(NCCN(C)C)c2c1', -69.5),
  ('O=C(CN1CCN(S(=O)(=O)c2ccc(Cl)cc2)CC1)NCC1(N2CCOCC2)CCCCC1', -39.3),
  ('CCOC(=O)c1cnc2c(ccc3ccccc32)c1NCCN(C)C', -7.47),
  ('Cc1cc(C)c(C)c(S(=O)(=O)N2CCN(c3ncnc4ccccc34)CC2)c1C', -4.67),
  ('COc1ccc(C(=O)N/C(=C/c2cccnc2)C(=O)N2CCN(C)CC2)cc1OC', 11.4),
  ('CCOC(=O)c1cnc2ccc(Cl)cc2c1NCCN(C)C', -22.8),
  ('CCOC(=O)c1cnc2ccc(C)cc2c1NCCN1CCOCC1.Cl', -65.7);

----------
TESTED TARGET: human ether-à-go-go-related gene (hERG) potassium channel (human);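 note: peak tail current of the secondary pulse compared with the same well before compound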
MEASUREMENT NOTES: primary screen, population patch clamp on CHO cells stably expressing hERG; higher = less effect of the substance
The campaign covered roughly 310,000 compounds. About 14,000 (4.5%) showed an effect of 50% or more. The effect is printed as a negative number. Shown is part of a subset that was picked to be rich in strong results.
# key: entry, value: hERG current change (%, negative = inhibition) at 10uM
MEASURED QUANTITY: hERG current change (%, negative = inhibition) at 10uM (%)

INSERT INTO measurements (molecule, measured_number) VALUES
  ('O=S(=O)(c1ccc(-c2csc(=Nc3ccccc3)n2CCCN2CCOCC2)cc1)N1CCOCC1', -40.9),
  ('Cc1cc2c(n1-c1ccc(Br)cc1)CC(C)(C)CC2=O', -33.5),
  ('CC(C)C(NC(=O)COc1ccc2ccccc2c1)C(=O)N/N=C/C=C/c1ccccc1 (stereo not shown)', 14.8),
  ('CCS(=O)(=O)c1nc(S(=O)(=O)c2ccc(C)cc2)c(NCCCN2CCCC2=O)s1', -11.3),
  ('Brc1cccc(Cn2c(-c3cncs3)nc3ccccc32)c1', -10.5),
  ('Cc1nnc(N/N=C/c2ccc(-c3ccccc3F)o2)n1N.Cl', -40.3),
  ('COCCN(C(=O)Nc1ccc(OC)cc1OC)C1CCN(C(C)=O)CC1', 7.58);

----------
TESTED TARGET: human ether-à-go-go-related gene (hERG) potassium channel (human);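 note: peak tail current of the secondary pulse compared with the same well before compound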
MEASUREMENT NOTES: primary screen, population patch clamp on CHO cells stably expressing hERG; higher = less effect of the substance
The whole screen tested about 310,000 compounds, of which about 14,000 (4.5%) showed an effect of 50% or more. The effect is printed as a negative number. The sample holds strong results, similar compounds and a random draw of the others, so the mix is not that of the screen.
Catalogue of hERG current change (%, negative = inhibition) at 10uM readings, one per entry.
MEASURED QUANTITY: hERG current change (%, negative = inhibition) at 10uM (%)

INSERT INTO assay_data (compound, unit_info, measured_number) VALUES
  ('O=S(=O)(NCCOc1ccccc1Cl)c1ccc2oc3ccccc3c2c1', '%', 3.52),
  ('Cc1nc2ccccc2c(=O)n1Cc1ccco1', '%', -7.41),
  ('COc1ccc(C(=O)C2CCCN(C3Cc4ccccc4C3)C2)cc1OC (centres unmarked)', '%', -76.6),
  ('C/C(=N\N=C1\NC(=O)CC(C(=O)O)S1)c1ccc(F)cc1 (centres unmarked)', '%', 0.193),
  ('O=C1c2ccccc2C(=O)N1CCCn1ccnc1', '%', 17.1),
  ('O=C(CNC(=O)c1ccccc1F)OCc1csc(-c2ccccc2)n1', '%', 14.6),
  ('O=C(O)CC1SC(=O)N(Cc2ccccc2)C1=O (centres unmarked)', '%', 21),
  ('COc1cc(C(=O)NCC2CCCCC2)cc(OC)c1OC', '%', -67.3),
  ('O=C1c2ccccc2C(=O)N1CCCc1nc2ccccc2c(=O)n1-c1cccnc1', '%', -39.7),
  ('CCC(c1nc2ccccc2c(=O)n1CCCn1ccnc1)N1C(=O)c2ccccc2C1=O (centres unmarked)', '%', -38.8),
  ('Cc1ccc(OCCCCCN2CCOCC2)cc1', '%', 4.39),
  ('COc1ccc(OC)c(NC(=O)N2CCCC(C(=O)c3ccccc3OC)C2)c1 (centres unmarked)', '%', 5.87),
  ('COc1ccc(OC)c(NC(=O)NNC(=O)c2cc3occc3[nH]2)c1', '%', 14.3),
  ('COc1cccc(-c2nc(CS(=O)(=O)CC(=O)Nc3cc(F)ccc3F)c(C)o2)c1', '%', 8.16),
  ('C=CCNC(=S)N1CCN(CCN=CC2=C(O)CC(c3cccs3)CC2=O)CC1 (centres unmarked)', '%', -49.1),
  ('CC(=O)N1CCN(CCN=CC2=C(O)CC(c3ccc(Cl)cc3)CC2=O)CC1 (centres unmarked)', '%', -15.7),
  ('O=[N+]([O-])c1ccc(OCCCCN2CCCCC2)cc1', '%', -69.4);
